system: LNCaP; experiment: Cell growth inhibition assay, prostate cancer cell line LNCaP (medium with 10 ng/mL IL-6); type: cell-based; details: Homo sapiens, medium supplemented with 10 ng/mL of IL-6, 10,000 cells/well
Parameter Measured: IC50 (µM)

P: CS(=O)(=O)Nc1ccc2oc(C(=O)Nc3cccc(-c4ccc(F)cc4F)c3)cc2c1
Q: COc1cc2cc(C(=O)Nc3cc(Br)cc(-c4ccc(F)cc4F)c3)[nH]c2cc1NS(C)(=O)=O
Query block: Lab notebook, comparison: P versus Q , higher IC50 goes to which? Your choice should be expressed through its label.
Result block: P

----------
system: LNCaP; experiment: Cell growth inhibition assay, prostate cancer cell line LNCaP (medium with 10 ng/mL IL-6); format: cell-based; details: Homo sapiens, medium supplemented with 10 ng/mL of IL-6, 10,000 cells/well
Parameter Measured: IC50 (µM)

See these solved cases before continuing.
compound="CS(=O)(=O)Nc1ccc2cc(C(=O)Nc3cccc(C4(c5ccccc5)CC4)c3)[nH]c2c1 [Example 422]" tested_system=LNCaP parameter_measured=IC50 number=2.1
compound="CC(C)(c1cc(F)cc(NC(=O)c2cc3cc(NS(C)(=O)=O)ccc3s2)c1)c1cc(CN2CCOCC2)cc(OC(F)(F)C(F)F)c1 [Example 140]" tested_system=LNCaP parameter_measured=IC50 number=0.13
compound="CS(=O)(=O)Nc1ccc2sc(C(=O)Nc3cc(Cl)cc(Oc4cccc(OC(F)(F)F)c4)c3)cc2c1 [Example 450]" tested_system=LNCaP parameter_measured=IC50 number=0.099
compound="CN(c1ccc2cc(C(=O)Nc3cc(Br)cc(-c4ccc(F)cc4F)c3)n(C)c2c1)S(C)(=O)=O [Example 341]" tested_system=LNCaP parameter_measured=IC50 number=6.2
compound="CC(C)Oc1cc(CN2CCN(S(=O)(=O)N(C)C)CC2)cc(C(C)(C)c2cc(Cl)cc(NC(=O)c3cc4cc(NS(C)(=O)=O)ccc4s3)c2)c1 [Example 131]" tested_system=LNCaP parameter_measured=IC50 number=0.26
compound="CS(=O)(=O)Nc1ccc2cc(C(=O)Nc3cccc(-c4cnccc4C(F)(F)F)c3)[nH]c2c1 [Example 291]" tested_system=LNCaP parameter_measured=IC50 number=8.1
compound="CS(=O)(=O)Nc1ccc2sc(C(=O)Nc3cc(Cl)nc(Oc4ccc(Cl)cc4)c3)cc2c1 [Example 489]" tested_system=LNCaP parameter_measured=IC50 number=0.11
compound="Cn1cccc1C(C)(C)c1cc(Cl)cc(NC(=O)c2cc3cc(NS(C)(=O)=O)ccc3s2)c1 [Example 169]" tested_system=LNCaP parameter_measured=IC50 number=0.073

1: CC(C)Oc1cc(OC(F)(F)F)cc(C(C)(C)c2cc(Cl)cc(NC(=O)c3cc4cc(N5CCCCS5(=O)=O)ccc4s3)c2)c1 [Example 211]
2: CN(C)c1cc(NC(=O)c2cc3cc(NS(C)(=O)=O)ccc3s2)cc(-c2ccc(F)cc2F)c1 [Example 375]
3: CN(C)CCOc1cc(OC(F)(F)F)cc(C(C)(C)c2cc(Cl)cc(NC(=O)c3cc4cc(NS(C)(=O)=O)ccc4s3)c2)c1 [Example 94]
Query block: Put the entries in order of IC50, starting with the largest number. List each label, following the requested order.
Result block: 2, 3, 1

P: CC(C)Oc1cc(OC(F)(F)F)cc(C(C)(C)c2cc(F)cc(NC(=O)c3cc4cc(NS(C)(=O)=O)ccc4s3)c2)c1 [Example 82]
Q: CC(C)Oc1cc(OC(F)(F)F)cc(C(C)(C)c2cc(Cl)cc(NC(=O)c3cc4cc(NS(C)(=O)=O)ncc4s3)c2)c1 [Example 71]
Query block: Lab notebook, comparison: P versus Q , higher IC50 goes to which? Your choice should be expressed through its label.
Result block: Q

a: CS(=O)(=O)Nc1cc2cc(C(=O)Nc3cc(Cl)cc(Oc4ccc(Cl)cc4)c3)sc2cc1Cl [Example 449]
b: CS(=O)(=O)Nc1ccc2sc(C(=O)Nc3cccc(-c4ccc(F)cc4F)c3)cc2c1 [Example 237]
Query block: Lab notebook, comparison: a versus b , higher IC50 goes to which? Your choice should be expressed through its label.
Result block: b

A: CC(C)Oc1cc(-c2cnn(C)c2)cc(C(C)(C)c2cc(Cl)cc(NC(=O)c3cc4cc(NS(C)(=O)=O)ccc4s3)c2)c1 [Example 143]
B: CC(C)(c1cc(Br)cc(NC(=O)c2cc3cc(NS(C)(=O)=O)ccc3s2)c1)c1cc(OCC(N)=O)ccc1F [Example 44]
C: CN(c1ccc(Cl)cc1)c1cc(Cl)cc(NC(=O)c2cc3cc(NS(C)(=O)=O)c(Cl)cc3s2)c1 [Example 441]
D: CC(C)(c1ccc(F)cc1)c1cc(Br)cc(NC(=O)c2cc3cc(NS(C)(=O)=O)ccc3s2)c1 [Example 32]
E: Cn1c(C(=O)Nc2cccc(-c3ccccc3C(F)(F)F)c2)cc2ccc(NS(C)(=O)=O)cc21 [Example 253]
Query block: Put the entries in order of IC50, starting with the largest number. List each label, following the requested order.
Result block: E, B, A, D, C
(E: 8.5 µM, B: 5.2 µM, A: 0.47 µM, D: 0.15 µM, C: 0.012 µM)

a: COc1cc(OC(F)(F)F)cc(-c2cc(Cl)cc(NC(=O)c3cc4cc(N(C)S(C)(=O)=O)c(F)cc4s3)c2)c1 [Example 326]
b: COc1cc(OC(F)(F)F)cc(C(C)c2cccc(NC(=O)c3cc4ccc(NS(C)(=O)=O)cc4[nH]3)c2)c1 (stereo not shown) [Example 10]
Query block: Could you determine which record has the numerically smaller IC50? Candidates: a and b Your choice should be expressed through its label.
Result block: a
(a: 0.14 µM, b: 1.7 µM)

a: O=C(Nc1cccc(-c2ccc(F)cc2F)c1)c1cc2ccc(NS(=O)(=O)CC(F)(F)F)cc2[nH]1 [Example 273]
b: CS(=O)(=O)Nc1ccc2sc(C(=O)Nc3cc(Cl)cc(Oc4ccc(Cl)cc4)c3)cc2c1 [Example 445]
c: COc1cc(OC(F)(F)F)cc(C(C)(C)c2cccc(NC(=O)c3cc4ccc(NS(C)(=O)=O)cc4[nH]3)c2)c1 [Example 9]
Query block: Put the compounds in ascending order of IC50. List each label, following the requested order.
Result block: b, c, a

Reference for the values: patent US10562912B2
